Test system: MCF-7 cells from a breast cancer of human origin
Assay: Cytotoxicity on MCF-7 cells (MTT viability test)
Type: cell-based
Settings: MCF7, 6.25 μM, 24 h
PROPERTY: mortality at 6.25 µM (%)
Could you give me the number in %? Just the number is fine.

Consider the reported mortality at 6.25 µM for these molecules:
| MOLECULAR STRING | mortality at 6.25 µM (%) |
| --- | --- |
| CC(=O)N1[Se]c2c([N+](=O)[O-])cccc2C1(C)C | 73.3 |
| CC/C(=C(\c1ccccc1)c1ccc(OCCN2[Se]c3c([N+](=O)[O-])cccc3C2(C)C)cc1)c1ccccc1 | 19.4 |
| CC1(C)N[Se]c2c([N+](=O)[O-])cccc21 | 100 |

Let us examine a further case.
Req: Identify mortality at 6.25 µM associated with the molecule CC1(C)c2cccc([N+](=O)[O-])c2[Se]N1CCO
Resp: 55
